molecular target: Clade C DU172.17 gp120 protein (HIV-1 Clade C, DU172.17); assay: BLI (Octet), IgG on anti-hIgG Fc sensor, gp120 analyte, 1:1 fit
We use 20000 M⁻¹ s⁻¹ as the dividing line for kon: on or above the line is t, below is f.

| Binder | Label |
| --- | --- |
| Germ23 (antibody, V domains shown) VH: QVQLVQSGAEVKKPGASVKVSCEASGYRFPDYIIHWIRRAPGQGPEWMGWMNPMGGQVNIPWKFQGRVSMTRDTSIETAYMELRGLRSDDTAVYYCVRDRSNGSGKRFESSNWFLDLWGRGTLVTVSS VL: QSALTQPRSVSGSPGQSVTISCTGTHNLVSWCQHHPGKAPKLMIYDFNKRPSGVPDRFSGSGSGGTASLTISGLQAEDEAEYFCWAYEAFGGGTKLTVL | f |
| Germ6 (antibody, V domains shown) VH: ADLVQSGAVVKKPGDSVRVSCEAQGYRFPDYIIHWIRRAPGQGPEWMGWMNPMGGQVNIPWKFQGRVSMTRDTSIETAYLDLRGLKSDDTAVYYCVRDRSNGSGKRFESSNWFLDLWGRGTAVTVQS VL: QSALTQPRSVSGSPGQSVTISCTGTHNLVSWCQHQPGRAPKLLIYDFNKRPSGVPDRFSGSGSGGTASLTISGLQDEDDAEYFCWAYEAFGGGTKLTVL | t |
| NglycoSA (antibody, V domains shown) VH: ADLVQSGAVVKKPGDSVRISCEAQGYRFPDYIIHWIRRAPGQGPEWMGWMNPMGGQVNIPWKFQGRVSMTRDTSIETAFLDLRGLKSDDTAVYYCVRDRSNGAGKRFESSNWFLDLWGRGTAVTIQS VL: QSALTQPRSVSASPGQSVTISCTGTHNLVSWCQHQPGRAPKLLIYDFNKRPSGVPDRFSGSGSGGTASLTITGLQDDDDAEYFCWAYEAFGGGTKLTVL | f |
| Hydro2 (antibody, V domains shown) VH: ADLVQSGAVVKKPGDSVRISCEAQGYRFPDYIIHWIRRAPGQGPEWMGWMNPMGGQVNIPQKFQGRVSMTRDTSIETAFLDLRGLKSDDTAVYYCVRDRSNGSGKRFESSNWFLDLWGRGTAVTIQS VL: QSALTQPRSVSASPGQSVTISCTGTHNLVSWCQHQPGRAPKLLIYDFNKRPSGVPDRFSGSGSGGTASLTITGLQDDDDAEYFCWAYENFGGGTKLTVL | f |
